Source of measurements: paper PMC7870846

Target Under Test: T1, MBP-tagged split mFAP fragment m16
T1 chain: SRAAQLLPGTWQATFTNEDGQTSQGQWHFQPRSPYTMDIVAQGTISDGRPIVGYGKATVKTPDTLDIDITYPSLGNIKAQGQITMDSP
Assay Text: other fluorescence titration; MBP-tagged fragment titrated into its complementary MBP-tagged fragment; 25.0 uM DFHBI-1T; high-salt Tev cleavage buffer (25.0 mM Tris, 100 mM NaCl, pH 8.00); ex 468 nm, em 530 nm; estimated Kd, signal did not plateau
Experimental Conditions: both partners purified
pKd: −log10 of the molar value. No end group written: not given here.
Observed Property: pKd

# binder TQFKWDATTKGENDFHGRLTGTLQRQE (domain or fragment, not fully specified) [MBP-tagged split mFAP fragment m78] ; its pKd = ≤ 3.63
